Where do the numbers come from? From patent US20250171437A1.

target: human PAH with the R408W mutation (A375 R408W cells) (Homo sapiens, UniProt P00439, R408W); construct: expressed in transfected cells; experiment: Cell Based Phenylalanine Flux Assay; conditions: A375 R408W cells; 24 hrs with compound, then 20 μM sepiapterin and 800 μM 13C9,15N-Phenylalanine for 4 hours; 13C-Tyrosine by LC-MS; average where tested multiple times
Sequence (P00439 whole entry R408W): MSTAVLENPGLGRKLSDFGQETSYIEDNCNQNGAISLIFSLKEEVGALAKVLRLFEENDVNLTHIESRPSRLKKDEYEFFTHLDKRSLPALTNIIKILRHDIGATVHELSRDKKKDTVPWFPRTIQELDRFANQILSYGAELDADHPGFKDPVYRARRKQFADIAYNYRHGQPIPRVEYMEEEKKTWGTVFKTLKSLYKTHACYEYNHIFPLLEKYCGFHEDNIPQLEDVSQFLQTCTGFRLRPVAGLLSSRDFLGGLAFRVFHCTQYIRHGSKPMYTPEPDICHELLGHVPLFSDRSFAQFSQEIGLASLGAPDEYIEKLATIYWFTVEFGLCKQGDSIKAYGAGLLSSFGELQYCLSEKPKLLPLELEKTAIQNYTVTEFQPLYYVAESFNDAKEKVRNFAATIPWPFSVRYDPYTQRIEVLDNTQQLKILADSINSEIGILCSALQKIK
A collection of molecules and their measured AC50

molecule: O=C(c1ocnc1CC(F)F)N1CCc2[nH]cnc2[C@H]1c1nc2cc(F)ccc2o1 [Example 865]
AC50: ≤ 500 nM
//
molecule: O=C(c1oc(-c2ccncc2)nc1C(F)F)N1CCc2[nH]cnc2[C@H]1c1nc2cccc(F)c2o1 [Example 560]
AC50: ≤ 500 nM
//
molecule: O=C(c1cnn2cc(Br)c(Cl)cc12)N1CCc2[nH]cnc2[C@@H]1c1nc2cc(F)ccc2o1 [Example 166]
AC50: ≥ 5000 nM
//
molecule: Cc1nc(-c2cnn(C)c2)oc1C(=O)N1CCc2[nH]cnc2[C@H]1c1nc2cccc(F)c2o1 [Example 596]
AC50: ≤ 500 nM
//
molecule: CC(C)(O)C1CCN(c2ccc3c(C(=O)N4CCc5[nH]cnc5[C@@H]4c4nc5cccc(F)c5o4)cnn3c2)CC1 [Example 367]
AC50: 1000 to 5000 nM
//
molecule: O=C(c1oc(-c2ccccn2)nc1C(F)F)N1CCc2[nH]cnc2[C@H]1c1nc2cccc(F)c2o1 [Example 587]
AC50: ≤ 500 nM
//
molecule: O=C(c1nnc(-c2ccccn2)o1)N1CCc2[nH]cnc2[C@H]1c1nc2c(F)cc(F)cc2o1 [Example 523]
AC50: 500 to 1000 nM
